Entries and their measured Efficacy follow.
- target.system: Kir3.1/Kir3.2 (Homo sapiens) (UniProt P48549+P48051)
- assay.name: Activation of GIRK1/2 (unknown origin) transfected in HEK293 cells at 20 uM after 4 mins by thallium flux-based fluorescence assay relative to ML297
- Assay type: cell-based
experimental.endpoint: Efficacy

[
  {
    "smiles.notation": "Cc1ccc(NC(=O)Nc2ccc(Cl)cc2)cc1S(=O)(=O)N(C)C",
    "measurement": "92%"
  },
  {
    "smiles.notation": "Cc1ccc(NC(=O)Nc2cccc(C#N)c2)cc1S(=O)(=O)N(C)C",
    "measurement": "83%"
  },
  {
    "smiles.notation": "Cc1ccc(NC(=O)Nc2ccccc2Cl)cc1S(=O)(=O)N(C)C",
    "measurement": "94%"
  },
  {
    "smiles.notation": "Cc1ccc(NC(=O)Nc2cccc(F)c2)cc1S(=O)(=O)N(C)C",
    "measurement": "89%"
  }
]

====

- target.system: Kir3.1/Kir3.4 (Homo sapiens) (UniProt P48549+P48544)
- assay.name: Activation of GIRK1/4 (unknown origin) transfected in HEK293 cells at 20 uM after 4 mins by thallium flux-based fluorescence assay relative to ML297
- Format: cell-based
Entries and their measured Efficacy follow.
experimental.endpoint: Efficacy (%)

[
  {
    "smiles.notation": "CC(C)(C)c1cccc(NC(=O)Cc2ccccc2Cl)c1",
    "experimental.endpoint": "Efficacy",
    "value.unit": "%",
    "measurement": 76
  },
  {
    "smiles.notation": "Cc1ccc(NC(=O)Nc2ccc(C)c(S(=O)(=O)N(C)C)c2)cc1Cl",
    "experimental.endpoint": "Efficacy",
    "value.unit": "%",
    "measurement": 115
  },
  {
    "smiles.notation": "Cc1ccc(NC(=O)Nc2ccccc2)cc1S(=O)(=O)N(C)C",
    "experimental.endpoint": "Efficacy",
    "value.unit": "%",
    "measurement": 100
  }
]
